Values were extracted from patent US9980928B2.

biological target: UniProtKB Q01959
Sequence (Q01959 whole entry): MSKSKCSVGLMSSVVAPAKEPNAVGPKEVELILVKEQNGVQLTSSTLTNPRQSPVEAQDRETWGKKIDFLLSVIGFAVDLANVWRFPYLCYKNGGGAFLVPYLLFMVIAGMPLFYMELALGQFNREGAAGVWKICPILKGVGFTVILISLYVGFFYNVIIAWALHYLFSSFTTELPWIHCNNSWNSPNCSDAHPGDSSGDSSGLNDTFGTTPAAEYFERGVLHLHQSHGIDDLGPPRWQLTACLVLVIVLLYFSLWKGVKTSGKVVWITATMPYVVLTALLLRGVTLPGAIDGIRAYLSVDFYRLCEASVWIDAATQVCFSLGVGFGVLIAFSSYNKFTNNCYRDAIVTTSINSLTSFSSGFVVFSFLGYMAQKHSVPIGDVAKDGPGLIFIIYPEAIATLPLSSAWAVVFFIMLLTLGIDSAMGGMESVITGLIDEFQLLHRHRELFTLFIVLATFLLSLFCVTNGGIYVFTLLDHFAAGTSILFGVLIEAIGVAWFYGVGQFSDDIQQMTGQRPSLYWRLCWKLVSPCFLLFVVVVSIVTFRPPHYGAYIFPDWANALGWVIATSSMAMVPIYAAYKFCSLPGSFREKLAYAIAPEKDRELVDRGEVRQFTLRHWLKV
MEASURED ENDPOINT: IC50 (µM)

[[record]]
compound = "COC(=O)[C@H]1[C@H]2C[C@@H]3c4[nH]c5cc(OC)ccc5c4CCN3C[C@H]2C[C@@H](OC(=O)c2cc(OC)c(OC)c(OC)c2)[C@@H]1OC [reserpine, reference compound]"
endpoint_unit = "µM"
experimental_value = 1.3


----------
Items are presented alongside their recorded inhibition at 10 µM.
molecular target: norepinephrine (NE) transporter (Homo sapiens); construct: expressed in transfected cells; host or cells: CHO cells; assay: Norepinephrine transporter binding radioligand inhibition ([3H]-nisoxetine); conditions: concentration 10 μM
Sequence (P23975 whole entry): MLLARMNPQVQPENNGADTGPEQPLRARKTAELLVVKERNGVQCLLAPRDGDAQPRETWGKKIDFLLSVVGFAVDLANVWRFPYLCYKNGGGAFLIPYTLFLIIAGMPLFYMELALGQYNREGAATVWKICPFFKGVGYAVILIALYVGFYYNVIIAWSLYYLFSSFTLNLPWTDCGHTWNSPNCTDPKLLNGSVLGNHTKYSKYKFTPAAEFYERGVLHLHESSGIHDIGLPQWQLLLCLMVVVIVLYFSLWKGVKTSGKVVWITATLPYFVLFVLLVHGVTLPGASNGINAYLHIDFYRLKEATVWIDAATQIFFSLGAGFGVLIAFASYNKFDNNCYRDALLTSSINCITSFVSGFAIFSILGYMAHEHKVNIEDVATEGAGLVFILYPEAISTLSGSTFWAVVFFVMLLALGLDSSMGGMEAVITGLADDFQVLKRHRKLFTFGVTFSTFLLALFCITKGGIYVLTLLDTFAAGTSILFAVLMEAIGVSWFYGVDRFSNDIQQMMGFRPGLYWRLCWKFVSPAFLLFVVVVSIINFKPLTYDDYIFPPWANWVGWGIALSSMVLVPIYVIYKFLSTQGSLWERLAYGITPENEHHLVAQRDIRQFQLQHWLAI
Counter-ions that a name gives are not always drawn.
MEASURED ENDPOINT: inhibition at 10 µM

[[record]]
compound = "CCCC(CCC)C(=O)N(C)CCC(Oc1ccc(CCO)cc1)c1ccccc1 (stereo not shown) [Example 11]"
experimental_value = "65 to 90%"

[[record]]
compound = "CNCCC(Oc1ccc(CCO[C@@H]2O[C@H](CO)[C@@H](O)[C@H](O)[C@H]2O)cc1)c1ccccc1 (stereo partly shown) [Example 23]"
experimental_value = "65 to 90%"

[[record]]
compound = "CNCC[C@@H](Oc1ccc(CCO)cc1)c1ccccc1.Cl [Example 3, hydrochloride]"
experimental_value = "65 to 90%"

[[record]]
compound = "CNCCC(Oc1ccc(C/C=C/CO)cc1)c1ccccc1 (stereo not shown) [Example 25]"
experimental_value = "65 to 90%"

[[record]]
compound = "CNCC[C@H](Oc1ccc(CCO)cc1)c1ccccc1.Cl [Example 4, hydrochloride]"
experimental_value = "65 to 90%"

[[record]]
compound = "CNCCC(Oc1ccc(CCCCCCO)cc1)c1ccccc1 (stereo not shown) [Example 26]"
experimental_value = "65 to 90%"

[[record]]
compound = "CNCCC(Oc1ccc(CCCO)cc1)c1ccccc1 (stereo not shown) [Example 16, hydrochloride]"
experimental_value = "90%"

[[record]]
compound = "Cl.NCCC(Oc1ccc(CCO)cc1)c1ccccc1 (stereo not shown) [Example 12, hydrochloride]"
experimental_value = "79%"

[[record]]
compound = "CNCCC(Oc1cc(CCCCO)cc(CCCCO)c1)c1ccccc1 (stereo not shown) [Example 22]"
experimental_value = "65 to 90%"

[[record]]
compound = "CN(CCC(Oc1ccc(/C=C/CO)cc1)c1ccccc1)C(=O)OC(C)(C)C (stereo not shown) [Example 15]"
experimental_value = "65 to 90%"

[[record]]
compound = "OCCc1ccc(OC[C@@H]2CNCC[C@H]2c2ccc(F)cc2)cc1 [Example 30]"
experimental_value = "65 to 90%"

[[record]]
compound = "CNCC[C@H](Oc1ccc(CCO)cc1)c1cccs1 [Example 28]"
experimental_value = "65 to 90%"

[[record]]
compound = "CNCCC(Oc1ccc(CCOC(C)=O)cc1)c1ccccc1 (stereo not shown) [Example 10, acetate hydrochloride]"
experimental_value = "65 to 90%"

[[record]]
compound = "CNCCC(Oc1cc(CCO)cc(CCO)c1)c1ccccc1 (stereo not shown) [Example 20]"
experimental_value = "65 to 90%"

[[record]]
compound = "CN(C)CC(Oc1ccc(CCO)cc1)C1(O)CCCCC1 (stereo not shown) [Example 32]"
experimental_value = "65 to 90%"

[[record]]
compound = "CNCC[C@@H](Oc1ccc(CCO)cc1)c1cccs1 [Example 13]"
experimental_value = "80%"

[[record]]
compound = "CNCCC(Oc1ccc(CCO)cc1)c1ccccc1 (stereo not shown) [Example 5]"
experimental_value = "65 to 90%"

[[record]]
compound = "OCCc1ccc(OC(c2ccccc2)C2CNCCO2)cc1 (stereo not shown) [Example 29]"
experimental_value = "65 to 90%"

[[record]]
compound = "CN(C)CC(Oc1ccc(CCO)cc1)C1CCCCC1O (stereo not shown) [Example 31]"
experimental_value = "65 to 90%"

